This section presents sequences with their documented apparent KD of MS2 coat protein values.
- Test system: MS2 coat protein
- assaySummary: apparent KD of MS2 coat protein; designed switch direction (-1 OFF switch, 1 ON switch): -1; higher = weaker reporter binding
- measurementParameters: input ligand: none
Could you give me the number in nM? Just the number is fine.

Previously resolved entries follow.
[[record]]
orderedresidues = "UGUUGUUCCGAAGGAUAUGUAUGAGGAUCACCCAUAAGAGUUGAUGUACCAUGAGGAUCACCCAUGUAGAAGGUCGGGUUAACU [pwkr exNG2 2xF5 1xFMN.20] (Eterna round: R96, puzzle: Exclusion NG 2)"
targetdesc = "MS2 coat protein"
assayresult = 101

[[record]]
orderedresidues = "UUUAGUUCAGGAUAUGUAGAUUUUAACAUGAGGAUCACCCAUGUCGAUCCUGAAUUAACUACAGAAGGGAACAUUU [Mod of Brourd 4 - Jieux - Exclusion 5] (Eterna round: R97, puzzle: Exclusion 5)"
targetdesc = "MS2 coat protein"
assayresult = 18.8


q: Give the reported value of apparent KD of MS2 coat protein for this record: CGGAUGUUAGGAUAUUAGUAGUAGUCAGAAAAGACUAUUACUGAGAAGGAACAUGAGGAUCACCCAUGUUUCCG [Mat - Exclusion 4 - Eli Mod - D44] (Eterna round: R97, puzzle: Exclusion 4)
a: 15.4

q: Specify measured apparent KD of MS2 coat protein for GCCGGAUUUGUGAGGAUAUGCCUAUGGAUACAUAGGCAGAAGGCACAUGAGGAUCACCCAUGUUCCUCACCGGC [JL-BMX4-4.24 Eli mod] (Eterna round: R97, puzzle: Brourd's mod of Exclusion 4) .
a: 29.8
